protein stability index for assorted sequences
assay: protein stability index of a GFP-peptide fusion (yeast GPS) (PSI 1-4); higher = more stable; sorted into four equal gates, so the index is relative within each strain; conditions: doa10∆
result-type: protein stability index

[
  {
    "construct-sequence": "LLFWTDPRNLVNQTGST [YCG1]",
    "numeric-readout": 2.41
  },
  {
    "construct-sequence": "GEGPFTVKFKHMDYDGN [YMR129W/POM152]",
    "numeric-readout": 2.79
  },
  {
    "construct-sequence": "SSPLGFEETKLSTTPTK [SIR4]",
    "numeric-readout": 2.57
  },
  {
    "construct-sequence": "PLAKKQTVRLIKDLQRA [SIR2]",
    "numeric-readout": 2.77
  },
  {
    "construct-sequence": "SLNLTDDVISNAGTNDN [MCD1]",
    "numeric-readout": 2.88
  },
  {
    "construct-sequence": "ETRPAQVILPMSPNHGT [FAS2]",
    "numeric-readout": 2.43
  }
]

====

experiment: protein stability index of a GFP-peptide fusion (yeast GPS) (PSI 1-4); higher = more stable; sorted into four equal gates, so the index is relative within each strain; settings: ubr1∆
Entries and their protein stability index

[
  {
    "construct-sequence": "QLKMVNERELNVFARLS [RPC82]",
    "protein stability index": 2.95
  },
  {
    "construct-sequence": "LFQTIEKLINNSDDCMM [ECM29]",
    "protein stability index": 3.03
  },
  {
    "construct-sequence": "FVKVTKATLELLKLIEP [RPL7A]",
    "protein stability index": 2.91
  },
  {
    "construct-sequence": "DTNNEADLMALENATWT [SNF12]",
    "protein stability index": 2.94
  },
  {
    "construct-sequence": "FNVDDVLKFTFTGEKPI [MED8]",
    "protein stability index": 2.98
  },
  {
    "construct-sequence": "IPLDNYDDFIYLSDLKQ [PCI8]",
    "protein stability index": 2.62
  },
  {
    "construct-sequence": "QQVVCIFSYGPHIQKML [POP6]",
    "protein stability index": 2.07
  },
  {
    "construct-sequence": "LKMMKLIVDTHVQFRLG [PRP8]",
    "protein stability index": 1.93
  },
  {
    "construct-sequence": "EQQVKEAEMAYVKAVSD [SMC4]",
    "protein stability index": 2.83
  },
  {
    "construct-sequence": "DTQTFSVLLQQLLTPGS [YGL172W/NUP49]",
    "protein stability index": 1.48
  },
  {
    "construct-sequence": "FISSNDAFNMLSLTTVP [SNF6]",
    "protein stability index": 2
  },
  {
    "construct-sequence": "TTTTANINEVKKASDLV [NUT1]",
    "protein stability index": 2.62
  },
  {
    "construct-sequence": "EINSEMCHIVRKFHELN [GRR1]",
    "protein stability index": 2.44
  },
  {
    "construct-sequence": "NTTQDNGGDKELEMIGG [YCS4]",
    "protein stability index": 3.26
  },
  {
    "construct-sequence": "KAPEQFIENFLTNDTFE [YML103C/NUP188]",
    "protein stability index": 3.02
  }
]

====

assay: protein stability index of a GFP-peptide fusion (yeast GPS) (PSI 1-4); higher = more stable; sorted into four equal gates, so the index is relative within each strain; conditions: san1∆
Reported protein stability index values for a set of sequences

[
  {
    "construct-sequence": "FVKFITYLTQEILILIN [SIN4]",
    "protein stability index": 1.57
  },
  {
    "construct-sequence": "IYSRDIGAELKREESES [SNF2]",
    "protein stability index": 3.08
  },
  {
    "construct-sequence": "QLDAYGEKKVGSNGELF [SWP82]",
    "protein stability index": 3.62
  },
  {
    "construct-sequence": "LINDSYINDVHLLYPPH [SSN8]",
    "protein stability index": 2.96
  },
  {
    "construct-sequence": "FGINTNTTKTADTKAPT [YLR335W/NUP2]",
    "protein stability index": 3.19
  },
  {
    "construct-sequence": "CLMRSLHKLELKAKNQE [DSN1]",
    "protein stability index": 1.19
  },
  {
    "construct-sequence": "ILLAGRFRGKRVVYLKH [RPL6A]",
    "protein stability index": 2.04
  },
  {
    "construct-sequence": "DVIAWKNVLANSIWGSS [ITC1]",
    "protein stability index": 3.49
  },
  {
    "construct-sequence": "RAGVTIPSIPNPIANHT [SNF5]",
    "protein stability index": 2.43
  },
  {
    "construct-sequence": "GVIALGQFVTLGCTLVT [RMP1]",
    "protein stability index": 1.18
  },
  {
    "construct-sequence": "NHFSLSYKDSGLWGFST [COR1]",
    "protein stability index": 3.15
  },
  {
    "construct-sequence": "NINAKMETRINILLRER [YIL149C/MLP2]",
    "protein stability index": 2.61
  },
  {
    "construct-sequence": "EELRKHAQKRVSNASAR [SKI6]",
    "protein stability index": 3.01
  },
  {
    "construct-sequence": "PFDNSTEEKCKNFIESE [YJL039C/NUP192]",
    "protein stability index": 3.22
  },
  {
    "construct-sequence": "AKVNRPAKIVNFEKPKN [RPN5]",
    "protein stability index": 2.89
  },
  {
    "construct-sequence": "TQKRLAASVVGVGKRKV [RPL19A]",
    "protein stability index": 1.13
  },
  {
    "construct-sequence": "HGGGNHQHIGKASTISR [RPL2A]",
    "protein stability index": 3.08
  },
  {
    "construct-sequence": "LDRRFEIFFKKDSLWQS [FAS1]",
    "protein stability index": 2.52
  },
  {
    "construct-sequence": "TEKNREIYKQLNDRQEE [YIL149C/MLP2]",
    "protein stability index": 3.57
  },
  {
    "construct-sequence": "KSNTIPVTSIPSTNKKL [GAL11]",
    "protein stability index": 2.9
  },
  {
    "construct-sequence": "LAPSKHQPITSEQKMKE [SIR4]",
    "protein stability index": 2.61
  },
  {
    "construct-sequence": "AGFTHKLSNWLFGWNDL [YDL088C/ASM4]",
    "protein stability index": 2.9
  },
  {
    "construct-sequence": "PAVKQWDLLPEPIRFLP [SWI1]",
    "protein stability index": 2.33
  },
  {
    "construct-sequence": "ITGEDEVLCSRIIEKSV [RRP45]",
    "protein stability index": 2.1
  },
  {
    "construct-sequence": "GVHTGQFIYAGKKASLN [RPL2A]",
    "protein stability index": 3.15
  },
  {
    "construct-sequence": "FANYKLLLKKIIKDYVL [SRB4]",
    "protein stability index": 1.97
  },
  {
    "construct-sequence": "AELDPSLRTPIAPKITP [SEC65]",
    "protein stability index": 3
  },
  {
    "construct-sequence": "LKLCVQELEKRMPMDFK [PRE1]",
    "protein stability index": 3.18
  },
  {
    "construct-sequence": "QVFSVKDSTAGKKVFET [YJR042W/NUP85]",
    "protein stability index": 3.09
  },
  {
    "construct-sequence": "LIEKEIQPKITELKKKL [SMC1]",
    "protein stability index": 2.9
  },
  {
    "construct-sequence": "HSSSVFKGTDFVHSVKK [SRB4]",
    "protein stability index": 3.15
  },
  {
    "construct-sequence": "PYPGSPMHSIMPNSSLQ [DSN1]",
    "protein stability index": 2.63
  },
  {
    "construct-sequence": "EFTKINTPLVGAAFKVI [YJL039C/NUP192]",
    "protein stability index": 1.6
  },
  {
    "construct-sequence": "VKCKMSALQQIMYQQML [SNF2]",
    "protein stability index": 2.72
  },
  {
    "construct-sequence": "IINPHAIPSRMTVAHLI [RPB2]",
    "protein stability index": 1.86
  },
  {
    "construct-sequence": "ERDTFSDFTFPEYYSTA [DIS3]",
    "protein stability index": 2.15
  },
  {
    "construct-sequence": "VGGKSTVQNEILGDLGK [FAS2]",
    "protein stability index": 2.18
  },
  {
    "construct-sequence": "IPLDNYDDFIYLSDLKQ [PCI8]",
    "protein stability index": 1.77
  },
  {
    "construct-sequence": "KNTSSMDFLNSMENTPK [GAL11]",
    "protein stability index": 2.33
  },
  {
    "construct-sequence": "RRFNSSIGRTAQGKEFG [RPL17A]",
    "protein stability index": 2.95
  },
  {
    "construct-sequence": "TDAHTPLARNYIKSMDL [RPR2]",
    "protein stability index": 2.68
  },
  {
    "construct-sequence": "LVLGEVSKKELYAIKKV [BRR2]",
    "protein stability index": 3.13
  },
  {
    "construct-sequence": "RTAKAYLKVSEEEIKKF [PRP8]",
    "protein stability index": 3.12
  }
]
